# credit: ChEMBL document CHEMBL3885881

species: Rattus norvegicus; assay: DrugMatrix - Regimen: Daily Repeat; format: toxicity, organism-based, Sprague-Dawley; design: regimen Daily Repeat, gender Male, age 6-8 weeks; settings: in vivo, po, 0 mg/kg, 72 h, tissue Plasma, route oral GAVAGE, dose level Control, time 3 day, […]
Respond with fulfilled for PHOSPHORUS values of 10 mg/dL and above, not fulfilled for values below.

>>> label_class("Cc1cccc(C)c1NC(=O)C(C)N (stereo not drawn) [TOCAINIDE]")
"not fulfilled"
>>> label_class("Oc1ncnc2[nH]ncc12")
"fulfilled"
>>> label_class("COC(=O)Nc1nc2ccc(C(=O)c3ccccc3)cc2[nH]1")
"fulfilled"
>>> label_class("O=C(O)COC(=O)Cc1ccccc1Nc1c(Cl)cccc1Cl")
"fulfilled"

###

species: Rattus norvegicus; experiment: DrugMatrix - Regimen: Daily Repeat; assay type: toxicity, organism-based, Sprague-Dawley; parameters: regimen Daily Repeat, gender Male, age 6-8 weeks; details: in vivo, po, 0 mg/kg, 72 h, tissue Blood, route oral GAVAGE, dose level Control, time 3 day, vehicle .5 % CMC
attribute_measured: MEAN CORPUSCULAR HEMOGLOBIN

>>> result("CCN1CCN(c2cc3c(cc2F)c(=O)c(C(=O)O)cn3C2CC2)CC1")
"21.9 pg"
>>> result("NC(=O)NC(=O)Cc1ccccc1 [PHENACEMIDE]")
"23.15 pg"
>>> result("COc1ccc(Cl)cc1C(=O)NCCc1ccc(S(=O)(=O)NC(=O)NC2CCCCC2)cc1 [GLYBURIDE]")
"23.48 pg"
>>> result("CCN1CCCC1CNC(=O)c1cc(S(N)(=O)=O)ccc1OC (stereo not drawn) [SULPIRIDE]")
"24.67 pg"
>>> result("CCOc1cc(N)c(Cl)cc1C(=O)NCC1CN(Cc2ccc(F)cc2)CCO1 (stereo not drawn) [MOSAPRIDE]")
"24.6 pg"
>>> result("Cc1cc2c(s1)Nc1ccccc1N=C2N1CCN(C)CC1")
"24.6 pg"
>>> result("CCN1C[C@]2(COC)[C@H](O)C[C@H](OC)[C@@]34[C@@H]5C[C@@]6(O)[C@H](OC(=O)c7ccccc7)[C@@H]5[C@@](OC(C)=O)([C@@H]([C@H](OC)[C@H]23)[C@@H]14)[C@@H](O)[C@@H]6OC")
"19.72 pg"
>>> result("CC(C)Cc1ccc([C@H](C)C(=O)O)cc1")
"19.57 pg"

###

organism: Rattus norvegicus; assay: DrugMatrix - Regimen: Daily Repeat; format: toxicity, organism-based, Sprague-Dawley; parameters: regimen Daily Repeat, gender Male, age 6-8 weeks; details: in vivo, po, 0 mg/kg, 72 h, tissue Blood, route oral GAVAGE, dose level Control, time 3 day, vehicle 100 % WATER
Catalogue of compounds with associated HEMATOCRIT
attribute_measured: HEMATOCRIT (%)

>>> quantitative_readout("CCN(CC)C(=S)SSC(=S)N(CC)CC")
35.77
>>> quantitative_readout("CC(Cl)(Cl)Cl")
35.33
>>> quantitative_readout("CN1C(=O)OC(C)(C)C1=O")
35.07
>>> quantitative_readout("Cc1cc(C(C)(C)C)c(O)c(C)c1CC1=NCCN1")
33.07
>>> quantitative_readout("NN [HYDRAZINE]")
34.38
>>> quantitative_readout("C[N+](C)(C)CCOC(N)=O.[Cl-]")
34.5
>>> quantitative_readout("C1CCN2C[C@@H]3C[C@@H](CN4CCCC[C@@H]34)[C@H]2C1")
35.33
>>> quantitative_readout("CCC1(c2ccccc2)C(=O)NC(=O)NC1=O")
33.63
>>> quantitative_readout("Cc1cn([C@H]2C=C[C@@H](CO)O2)c(=O)[nH]c1=O")
34.5

###

organism: Rattus norvegicus; test: DrugMatrix - Regimen: Daily Repeat; type: toxicity, organism-based, Sprague-Dawley; parameters: regimen Daily Repeat, gender Male, age 6-8 weeks; conditions: in vivo, po, 1500 mg/kg, 120 h, tissue Blood, route oral GAVAGE, dose level High, time 5 day, vehicle .5 % CMC
attribute_measured: MEAN CORPUSCULAR HEMOGLOBIN (pg)

>>> quantitative_readout("CC[C@H]1OC(=O)[C@H](C)[C@@H](O[C@H]2C[C@@](C)(OC)[C@@H](O)[C@H](C)O2)[C@H](C)[C@@H](O[C@@H]2O[C@H](C)C[C@H](N(C)C)[C@H]2O)[C@](C)(O)C[C@@H](C)C(=O)[C@H](C)[C@@H](O)[C@]1(C)O")
24.4
>>> quantitative_readout("Cc1ccc(S(=O)(=O)NC(=O)NN2CCCCCC2)cc1 [TOLAZAMIDE]")
23.2
>>> quantitative_readout("O=C(O)CCc1nc(-c2ccccc2)c(-c2ccccc2)o1")
25.63
>>> quantitative_readout("COc1ccc(Cl)cc1C(=O)NCCc1ccc(S(=O)(=O)NC(=O)NC2CCCCC2)cc1 [GLYBURIDE]")
24.03
>>> quantitative_readout("COc1cc(/C=C/C(=O)O)ccc1O [FERULATE]")
22.73

###

species on record: Rattus norvegicus; experiment: DrugMatrix - Regimen: Daily Repeat; type: toxicity, organism-based, Sprague-Dawley; design: regimen Daily Repeat, gender Male, age 6-8 weeks; details: in vivo, po, 0 mg/kg, 72 h, tissue Plasma, route oral GAVAGE, dose level Control, time 3 day, […]
The label is Yes for ALBUMIN below 4 G/DL and No for ALBUMIN equal to or exceeding 4 G/DL.

>>> label_class("Oc1ncnc2[nH]ncc12 [ALLOPURINOL]")
"No"
>>> label_class("CCOC(=O)C1=C(C)NC(C)=C(C(=O)OCC)C1c1ccccc1/C=C/C(=O)OC(C)(C)C [LACIDIPINE]")
"Yes"
>>> label_class("CS(=O)(=O)c1ccc(C2=C(c3ccccc3)C(=O)OC2)cc1 [ROFECOXIB]")
"No"

###

species: Rattus norvegicus; assay: DrugMatrix - Regimen: Daily Repeat; assay type: toxicity, organism-based, Sprague-Dawley; design: regimen Daily Repeat, gender Male, age 6-8 weeks; details: in vivo, po, 1500 mg/kg, 120 h, tissue Plasma, route oral GAVAGE, dose level High, time 5 day, vehicle .5 % CMC
attribute_measured: ALKALINE PHOSPHATASE (u/L)

>>> quantitative_readout("CC[C@H]1OC(=O)[C@H](C)[C@@H](O[C@H]2C[C@@](C)(OC)[C@@H](O)[C@H](C)O2)[C@H](C)[C@@H](O[C@@H]2O[C@H](C)C[C@H](N(C)C)[C@H]2O)[C@](C)(O)C[C@@H](C)C(=O)[C@H](C)[C@@H](O)[C@]1(C)O")
311.67
>>> quantitative_readout("O=C(O)CCc1nc(-c2ccccc2)c(-c2ccccc2)o1")
427.67
>>> quantitative_readout("COc1ccc(Cl)cc1C(=O)NCCc1ccc(S(=O)(=O)NC(=O)NC2CCCCC2)cc1 [GLYBURIDE]")
297.33
>>> quantitative_readout("Cc1ccc(S(=O)(=O)NC(=O)NN2CCCCCC2)cc1 [TOLAZAMIDE]")
319.67
>>> quantitative_readout("COc1cc(/C=C/C(=O)O)ccc1O [FERULATE]")
399

###

species on record: Rattus norvegicus; experiment: DrugMatrix - Regimen: Daily Repeat; type: toxicity, organism-based, Sprague-Dawley; design: regimen Daily Repeat, gender Male, age 6-8 weeks; details: in vivo, po, 1500 mg/kg, 72 h, tissue Plasma, route oral GAVAGE, dose level High, time 3 day, vehicle .5 % CMC
attribute_measured: CARBON DIOXIDE

>>> result("CC[C@H]1OC(=O)[C@H](C)[C@@H](O[C@H]2C[C@@](C)(OC)[C@@H](O)[C@H](C)O2)[C@H](C)[C@@H](O[C@@H]2O[C@H](C)C[C@H](N(C)C)[C@H]2O)[C@](C)(O)C[C@@H](C)C(=O)[C@H](C)[C@@H](O)[C@]1(C)O")
"34 mmol/L"
>>> result("O=C(O)CCc1nc(-c2ccccc2)c(-c2ccccc2)o1")
"31.33 mmol/L"
>>> result("COc1cc(/C=C/C(=O)O)ccc1O [FERULATE]")
"25.67 mmol/L"
>>> result("Cc1ccc(S(=O)(=O)NC(=O)NN2CCCCCC2)cc1 [TOLAZAMIDE]")
"25 mmol/L"

###

species on record: Rattus norvegicus; assay: DrugMatrix - Regimen: Daily Repeat; assay type: toxicity, organism-based, Sprague-Dawley; parameters: regimen Daily Repeat, gender Male, age 6-8 weeks; settings: in vivo, po, 0 mg/kg, 120 h, tissue Plasma, route oral GAVAGE, dose level Control, time 5 day, […]
Catalogue of compounds with associated LACTATE DEHYDROGENASE
attribute_measured: LACTATE DEHYDROGENASE (u/L)

>>> quantitative_readout("CC#C[C@]1(O)CC[C@H]2[C@@H]3CCC4=CC(=O)CCC4=C3[C@@H](c3ccc(N(C)C)cc3)C[C@@]21C [MIFEPRISTONE]")
88.5
>>> quantitative_readout("COc1ccccc1OCCNCC(O)COc1cccc2[nH]c3ccccc3c12 (centres undefined) [CARVEDILOL]")
111.33
>>> quantitative_readout("CS(=O)(=O)c1ccc(C2=C(c3ccccc3)C(=O)OC2)cc1 [ROFECOXIB]")
91.5
>>> quantitative_readout("O=C(Nc1ccc(Cl)c(Cl)c1)c1cc(Cl)cc(Cl)c1O [3,3',4',5-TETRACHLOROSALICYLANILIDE]")
229.17
